target: MMP-14 (Homo sapiens); construct: 20 kDa; purchased Chemicon International, Inc. CC 1041; assay: In-vitro fluorescence assay of MMP-14 activity; assay type: biochemical

>  <compound smiles>
CC(C)[C@H](NS(=O)(=O)c1ccc(-c2ccc(NC(=O)c3cc4ccccc4o3)cc2)cc1)C(=O)O

>  <IC50, µM>
2.2

$$$$
>  <compound smiles>
COc1c(Br)ccc2oc(C(=O)Nc3ccc(-c4ccc(S(=O)(=O)N[C@H](C(=O)O)C(C)C)cc4)cc3)c(C)c12

>  <IC50, µM>
14.6

$$$$
>  <compound smiles>
Cc1c(C(=O)Nc2ccc(-c3ccc(S(=O)(=O)N[C@H](C(=O)O)C(C)C)cc3)cc2)oc2cccc(C#N)c12

>  <IC50, µM>
5.45

$$$$

====

molecular target: MMP-14 (Homo sapiens, UniProt P50281); construct: 20 kDa; purchased Chemicon International, Inc. CC 1041; assay: In-vitro fluorescence assay of MMP-14 activity; assay type: biochemical; settings: recombinant human catalytic domain of MMP-14
pIC50: −log10 of the molar value.
Would you mind labelling by pIC50? At or over 5 is criterion met, under is criterion not met.

>  <compound>
CC(C)[C@H](NS(=O)(=O)c1ccc(-c2ccc(NC(=O)c3cccs3)cc2)cc1)C(=O)O [Example 174]

>  <class>
criterion met

$$$$
>  <compound>
Cc1c(COc2ccc(-c3ccc(S(=O)(=O)N[C@@H](C(=O)O)C(C)C)cc3)cc2)oc2ccccc12 [Example 139]

>  <class>
criterion met

$$$$
>  <compound>
CC(C)[C@@H](C(=O)O)N(CCN1CCOCC1)S(=O)(=O)c1ccc(-c2ccc(NC(=O)c3cc4ccccc4o3)cc2)cc1 [Example 82]

>  <class>
criterion not met

$$$$
>  <compound>
CC(C)[C@H](NS(=O)(=O)c1ccc(-c2ccc(NC(=O)c3ccco3)cc2)cc1)C(=O)O [Example 175]

>  <class>
criterion met

$$$$
>  <compound>
CN(CC(=O)O)S(=O)(=O)c1ccc(-c2ccc(NC(=O)c3cc4ccccc4o3)cc2)cc1 [Example 79]

>  <class>
criterion not met

$$$$
>  <compound>
Cc1c(C(=O)Nc2ccc(-c3ccc(S(=O)(=O)N[C@H](C(=O)O)C(C)C)cc3)cc2)oc2cccc(-c3cccc([N+](=O)[O-])c3)c12 [Example 110]

>  <class>
criterion not met

$$$$
>  <compound>
CC(C)[C@@H](NS(=O)(=O)c1ccc(-c2ccc(OC(=O)c3cc4ccccc4o3)cc2)cc1)C(=O)O [Example 135]

>  <class>
criterion met

$$$$
>  <compound>
CC(C)[C@H](NS(=O)(=O)c1ccc(-c2ccc(NC(=O)c3nc4ccccc4s3)cc2)cc1)C(=O)O [Example 151]

>  <class>
criterion not met

$$$$
>  <compound>
Cc1c(C(=O)Nc2ccc(-c3ccc(S(=O)(=O)N[C@H](C(=O)O)C(C)C)cc3)cc2)oc2cccc(C(N)=O)c12 [Example 46]

>  <class>
criterion not met

$$$$
>  <compound>
Cc1c(C(=O)Oc2ccc(-c3ccc(S(=O)(=O)N[C@@H](C(=O)O)C(C)C)cc3)cc2)oc2ccccc12 [Example 134]

>  <class>
criterion met

$$$$
>  <compound>
CC(C)[C@@H](NS(=O)(=O)c1ccc(-c2ccc(OCc3cc4ccccc4o3)cc2)cc1)C(=O)O [Example 141]

>  <class>
criterion met

$$$$
